- System name: Arginase-2, mitochondrial (Homo sapiens)
- Sequence (whole entry): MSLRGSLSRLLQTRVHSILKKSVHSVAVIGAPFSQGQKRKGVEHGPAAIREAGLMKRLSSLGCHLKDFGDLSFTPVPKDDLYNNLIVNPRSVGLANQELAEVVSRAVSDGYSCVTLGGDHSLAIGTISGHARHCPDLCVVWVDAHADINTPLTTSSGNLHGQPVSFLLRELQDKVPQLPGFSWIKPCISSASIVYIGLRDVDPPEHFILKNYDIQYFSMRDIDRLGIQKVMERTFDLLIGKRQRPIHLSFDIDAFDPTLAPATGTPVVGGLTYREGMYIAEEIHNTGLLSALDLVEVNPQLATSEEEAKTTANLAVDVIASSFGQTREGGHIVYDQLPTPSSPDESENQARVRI
- Method description: in vitro enzyme assay to detect the production of urea directly proportional to the activity of Arginase II
- Type: functional
- Parameters: scale not given: in the data most compounds retested in dose-response had high values
- Condition set: 30 µM
For each entry below, report its Percent Effect value.
Note to self: number, then unit, no commentary.

Sample O=C1CSC(c2ccsc2)c2c(n(C3CCCC3)[nH]c2=O)N1 (centres undefined) , system: Arginase-2, mitochondrial (Homo sapiens). Its Percent Effect is 4.87%

Bench note, Arginase-2, mitochondrial (Homo sapiens): "CN(Cc1ccco1)[C@@H]1CN(Cc2cccnc2)[C@@H]2CCCO[C@H]12" , Percent Effect reads 2.7%

The reported Arginase-2, mitochondrial (Homo sapiens) Percent Effect of O=C1CSC(c2ccc(O)cc2)c2c(n(C3CCOCC3)[nH]c2=O)N1 (centres undefined) is 11.3%

Query O=C1CSC(c2ccccc2)c2c(n(C3CCOCC3)[nH]c2=O)N1 (centres undefined) on Arginase-2, mitochondrial (Homo sapiens); Percent Effect returned: 5.95%

Query "c1ccc(O[C@@H]2CO[C@@]3(CCCN(CC4CCOCC4)C3)C2)nc1" on Arginase-2, mitochondrial (Homo sapiens); Percent Effect returned: 8.11%

Form: item Cc1nc(NCC2CC2)nc2c1COCC21CCNC1 (centres undefined) ; test system Arginase-2, mitochondrial (Homo sapiens); Percent Effect: 8.11%

Query "c1ccc(O[C@H]2CO[C@@]3(CCCN(Cc4nccs4)C3)C2)nc1" on Arginase-2, mitochondrial (Homo sapiens); Percent Effect returned: -0.54%

Arginase-2, mitochondrial (Homo sapiens) data for O=C1CSC(c2ccc(O)c(Cl)c2)c2c(n(C3CCOCC3)[nH]c2=O)N1 (centres undefined) ; its Percent Effect: 4.87%

Item O=C1CSC(c2cccnc2)c2c(n(C3CCOCC3)[nH]c2=O)N1 (centres undefined) ; assay system Arginase-2, mitochondrial (Homo sapiens); Percent Effect reported as 7.03%
